Assay: Equilibrium solubility in pH 7.4 PBS in presence of hydroxypropyl-gamma cyclodextrin incubated for 48 hrs at 25 degC by spectrophotometry
Format: physicochemical
Conditions: PBS with hydroxypropyl-gamma cyclodextrin
solubility thermodynamic at 48 h by entry:
measured_metric: solubility thermodynamic at 48 h (µg/mL)

[[record]]
substance_smiles = "Cc1ccc(S(=O)(=O)NC(=O)NCCc2ccc(S(N)(=O)=O)cc2)cc1"
experimental_value = 700

[[record]]
substance_smiles = "NS(=O)(=O)c1ccc(CCNC(=O)NS(=O)(=O)c2ccc(F)cc2)cc1"
experimental_value = 3700


----------
Assay: Aqueous solubility in pH 7.4 PBS in presence of sulfobutyl-ether-beta cyclodextrin incubated for 48 hrs at 25 degC by spectrophotometry
Assay type: physicochemical
Conditions: PBS with sulfobutyl-ether-beta cyclodextrin
measured_metric: solubility at 48 h (µg/mL)

[[record]]
substance_smiles = "Cc1ccc(S(=O)(=O)NC(=O)NCCc2ccc(S(N)(=O)=O)cc2)cc1"
experimental_value = 174

[[record]]
substance_smiles = "NS(=O)(=O)c1ccc(CCNC(=O)NS(=O)(=O)c2ccc(F)cc2)cc1"
experimental_value = 1810

